inhibition at 1 µM overview
Target: purified recombinant human p38 alpha MAPK (Homo sapiens)
Construct: purchased Millipore, USA
Sequence (Q16539 whole entry): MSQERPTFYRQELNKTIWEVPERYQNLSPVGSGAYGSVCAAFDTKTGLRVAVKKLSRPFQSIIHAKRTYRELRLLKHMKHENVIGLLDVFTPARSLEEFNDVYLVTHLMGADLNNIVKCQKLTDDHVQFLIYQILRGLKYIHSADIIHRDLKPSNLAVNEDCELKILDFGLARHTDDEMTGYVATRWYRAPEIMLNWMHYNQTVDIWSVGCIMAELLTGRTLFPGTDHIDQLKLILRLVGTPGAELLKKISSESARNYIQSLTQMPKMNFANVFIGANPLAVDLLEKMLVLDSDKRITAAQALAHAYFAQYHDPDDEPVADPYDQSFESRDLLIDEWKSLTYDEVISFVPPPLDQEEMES
Experiment: Inhibition of p38 alpha MAPK activity, TR-FRET kinase assay
Assay type: biochemical
Details: Concentration 1 μM; read-out: P38α Inhibition

See these solved cases before continuing.
compound: CSc1ccccc1-c1nnc2n1CCN(C(=O)COc1ccc(NC(=O)Nc3cc(C(C)(C)C)nn3-c3ccccc3)c3c1CCC3)C2 [Compound 7]
systemUnderTest: purified recombinant human p38 alpha MAPK (Homo sapiens)
inhibition at 1 µM: 80 to 100%

compound: COc1c(NC(=O)Nc2ccc(OCCN3CCn4c(nnc4-c4cccc5ccccc45)C3)c3c2CCC3)cc(C(C)(C)C)cc1NS(C)(=O)=O [Compound 74]
systemUnderTest: purified recombinant human p38 alpha MAPK (Homo sapiens)
inhibition at 1 µM: 60 to 80%

compound: Cc1ccc(-n2nc(C(C)(C)C)cc2NC(=O)Nc2ccc(OCCN3CCn4c(nnc4-c4cc(Cl)ccc4O)C3)c3c2CCC3)cc1 [Compound 38]
systemUnderTest: purified recombinant human p38 alpha MAPK (Homo sapiens)
inhibition at 1 µM: 80 to 100%

compound: Cc1ccc(-n2nc(C(C)(C)C)cc2NC(=O)Nc2ccc(OCCN3CCn4c(nnc4C4CCCCC4)C3)c3c2CCC3)cc1 [Compound 68]
systemUnderTest: purified recombinant human p38 alpha MAPK (Homo sapiens)
inhibition at 1 µM: 40 to 60%

compound: COc1c(NC(=O)Nc2ccc(OCCN3CCN(CC4CC4)C(=O)C3)c3c2CCC3)cc(C(C)(C)C)cc1NS(C)(=O)=O [Compound 39]
systemUnderTest: purified recombinant human p38 alpha MAPK (Homo sapiens)
inhibition at 1 µM: 80 to 100%

Attention now turns to another entry.
Task: What inhibition at 1 µM value was documented for this compound, CCCSc1ccccc1-c1nnc2n1CCN(CCOc1ccc(NC(=O)Nc3cc(C(C)(C)C)nn3-c3ccc(O)c(Cl)c3)c3c1CCC3)C2 [Compound 35] ?
Output: 80 to 100%
